Data credit: patent US20140057884A1

METHOD: MTT cell viability assay
Assay type: cell-based, human
PARTICULARS: human; HepG2 cells, 5 μM, 24 h, MTT; read-out: inhibition of cell viability (rate)
MEASUREMENT_KIND: cytotoxicity at 24 h, 5 μM

Input line: Quick one: cytotoxicity at 24 h, 5 μM for CC[C@H](/C=C/[C@@H](C)[C@H]1CC[C@H]2[C@@H]3CC=C4C[C@@H](O)CC[C@]4(C)[C@H]3CC[C@]12C)C(C)C ?
Output line: ~40%

* * *

METHOD: MTT cell viability assay
Format: cell-based, human
PARTICULARS: human; HepG2 cells, 10 μM, 24 h, MTT; read-out: inhibition of cell viability (rate)
MEASUREMENT_KIND: cytotoxicity at 24 h, 10 μM

Input line: Name the recorded cytotoxicity at 24 h, 10 μM for CC[C@H](/C=C/[C@@H](C)[C@H]1CC[C@H]2[C@@H]3CC=C4C[C@@H](O)CC[C@]4(C)[C@H]3CC[C@]12C)C(C)C [stigmasterol] .
Output line: ~43%

* * *

METHOD: MTT cell viability assay
Assay type: cell-based, human
PARTICULARS: human
MEASUREMENT_KIND: cytotoxicity at 24 h, 5 μM

Input line: Request the reported cytotoxicity at 24 h, 5 μM associated with CCC(CCC(C)C1CCC2C3CCC4(O)CC(O)CCC4(C)C3CCC12C)C(C)C (stereo not drawn) [5β-hydroxysitostanol]
Output line: ~6%

* * *

METHOD: MTT cell viability assay
Type: cell-based, human
PARTICULARS: human; HepG2 cells, 20 μM, 24 h, MTT; read-out: inhibition of cell viability (rate)
MEASUREMENT_KIND: cytotoxicity at 24 h, 20 μM

Input line: Item CC[C@H](/C=C/[C@@H](C)[C@H]1CC[C@H]2[C@@H]3CC=C4C[C@@H](O)CC[C@]4(C)[C@H]3CC[C@]12C)C(C)C has what recorded cytotoxicity at 24 h, 20 μM?
Output line: ~54%

* * *

METHOD: MTT cell viability assay
Assay type: cell-based, human
PARTICULARS: human
MEASUREMENT_KIND: cytotoxicity at 24 h, 20 μM

Input line: Entry CCC(CCC(C)C1CCC2C3CCC4(O)CC(O)CCC4(C)C3CCC12C)C(C)C (stereo not drawn) [5β-hydroxysitostanol] : reported cytotoxicity at 24 h, 20 μM = ?
Output line: ~15%
